biological target: mushroom tyrosinase; experiment: Effect of inhibiting mushroom tyrosinase activity (method of Vanni, et al.); settings: read-out: IC50 (concentration required to inhibit tyrosinase activity to 50%); mushroom tyrosinase 10 units, tyrosine substrate, 37° C. for 10 minutes, pH 6.8, absorbance at 480 nm
Property: IC50; scope: individual compounds
Hi, when you answer, please include the unit after the number. Thanks!

Observe how each entry below is paired with its result.
COc1cc(O)c(C(=O)NCc2ccc(O)cc2O)cc1C12CC3CC(CC(C3)C1)C2 :: 800 nM
O=C(NCc1ccc(O)cc1O)c1cc(C23CC4CC(CC(C4)C2)C3)c(O)cc1O :: 1100 nM
CCCCc1ccc(O)cc1O [Rucinol, reference compound] :: 1300 nM
COc1ccc(C(=O)NCc2ccc(O)cc2O)cc1C12CC3CC(CC(C3)C1)C2 :: 1400 nM
O=C(NCc1ccc(O)cc1O)c1ccc(O)c(C23CC4CC(CC(C4)C2)C3)c1 :: 900 nM

Kindly review the next compound as well.
Query: Which IC50 reading was recorded for the compound COc1cc(OC)c(C23CC4CC(CC(C4)C2)C3)cc1C(=O)NCc1ccc(O)cc1O ?
Result: 900 nM
